Each recorded value in this set is attributed to ChEMBL document CHEMBL2434876.

Experiment Notes: AUClast in Swiss Albino mouse at 50 mg/kg, po by LC-MS/MS analysis
Assay type: ADME, organism-based
Design: time 0 - last, dose 50 mg/kg, route oral
Applied Conditions: plasma
Attribute Measured: AUC(0-t) (ng·h/mL)
One number for each entry, in ng·h/mL.

Challenge: State its AUC(0-t) for this compound: "OC/C=C/c1cc(N2CCOCC2)c2cc(Cl)c(F)cc2n1"
Response given: 6.88

* * *

Test system: Leishmania donovani
Experiment Notes: Antileishmanial activity against Leishmania donovani MHOM/IN/80/Dd8 amastigotes infected in mouse J774A1 cells assessed as parasite growth inhibition after 72 hrs by luciferase reporter gene assay
Format: functional, organism-based
Applied Conditions: MHOM/IN/80/Dd8, J774.A1, 72 h
Attribute Measured: pIC50
Give bare numbers, as −log10 of the molar value.

Please review the entries below; each comes with its answer.
INSERT INTO measurements (compound, attribute_measured, experimental_result) VALUES
  ('COc1ccc2nc(/C=C/CO)ccc2c1', 'pIC50', 4.49),
  ('COc1ccc(-c2cc(/C=C/CO)nc3cc(F)c(Cl)cc23)cc1', 'pIC50', 5.92),
  ('CC1CN(c2cc(/C=C/CO)nc3cc(F)c(Cl)cc23)CC(C)O1 (stereo not given)', 'pIC50', 5.32),
  ('OC/C=C/c1ccc2ccccc2n1', 'pIC50', 5.00),
  ('OC/C=C/c1cc(N2CCCCC2)c2cc(Cl)c(F)cc2n1', 'pIC50', 5.55);

Record pIC50 per entry; entries follow.
1. COc1cc2nc(/C=C/CO)cc(N3CCOCC3)c2cc1Cl
2. N#C/C=C/c1ccc2ccccc2n1
3. NC(=O)/C=C/c1ccc2ccccc2n1
4. OC/C=C/c1ccc2cc(Cl)c(F)cc2n1

Response given:
1: 5.43; 2: 4.54; 3: 4.69; 4: 4.84

* * *

Experiment Notes: Plasma clearance in Swiss Albino mouse at 10 mg/kg, iv by LC-MS/MS analysis
Assay type: ADME, organism-based
Parameters: dose 10 mg/kg, route intravenous
Attribute Measured: clearance (mL/min/kg)
Answers are plain numbers, in mL/min/kg.

Challenge: State its clearance for this molecule: "OC/C=C/c1cc(N2CCOCC2)c2cc(Cl)c(F)cc2n1"
Response given: 865

* * *

Experiment Notes: Drug metabolism in hamster liver microsomes at 1 uM after 30 mins by LC-MS/MS analysis
Format: ADME, Microsome
Applied Conditions: cricetinae, read-out: Drug metabolism
Attribute Measured: metabolised at 0.5 h, 1 µM (%)
Give bare numbers, in %.

INSERT INTO measurements (molecule, endpoint_unit, experimental_result) VALUES
  ('CC1CN(c2cc(/C=C/CO)nc3cc(F)c(Cl)cc23)CC(C)O1 (stereo not given)', '%', 99),
  ('OC/C=C/c1cc(Oc2ccc(F)cc2)c2cc(Cl)ccc2n1', '%', 94),
  ('OC/C=C/c1cc(N2CCCCC2)c2cc(Cl)c(F)cc2n1', '%', 100),
  ('COc1ccc(-c2cc(/C=C/CO)nc3cc(F)c(Cl)cc23)cc1', '%', 23),
  ('COc1cc2nc(/C=C/CO)cc(N3CCOCC3)c2cc1Cl', '%', 86);

Record metabolised at 0.5 h, 1 µM per entry; entries follow.
1. CN1CCN(c2cc(/C=C/CO)nc3cc(F)c(Cl)cc23)CC1
2. OC/C=C/c1cc(N2CCOCC2)c2cc(Cl)ccc2n1
3. OC/C=C/c1cc(-c2ccc(F)cc2)c2cc(Cl)c(F)cc2n1
4. OC/C=C/c1cc(-c2cccc(F)c2)c2cc(Cl)c(F)cc2n1
5. OC/C=C/c1cc(N2CCOCC2)c2cc(Cl)c(F)cc2n1

Response given:
89
88
53
59
66
